Where do these numbers come from? They come from patent US6096504A.

Entries and their activity of enzyme with Atrazine values follow.
Assay: GST conjugation of Atrazine with glutathione (HPLC)
Format: biochemical
Settings: purified enzyme, 0.4 mM electrophilic substrate, 4 mM glutathione, 0.1 M MOPS pH 7.0

{"molecule": "bms1.pk0023.g8: maize class I GST enzyme encoded by cDNA clone, expressed in E. coli (protein) MAPPMKVYGWAVSPWMARALVCLEEAGADYEIVPMSRCGGDHRRPEHLAKNPFGEIPVLEDGDLTLYQSRAIARYVLRKLKPELLREGDLEGSAMVDAWMEVEAHHMEPALWPIIRHSIIGQYVGRERDHQAVIDENLDRLRKVLPAYEARLSVCKYLVGDDISAADLCHFGFMRYFMATEYAGLVDAYPHVKAWWDALLARPSVQKVMAGMPPDFGYASGNIP", "value-units": "nmol/min/mg", "activity of enzyme with Atrazine": 0.00}
{"molecule": "ceb5.pk0049.a11: maize class III GST enzyme encoded by cDNA clone, expressed in E. coli (protein) MAEEKKQGLQLLDFWVSPFGQRCRIALDEKGLAYEYLEQDLRNKSELLLRANPVHKKIPVLLHDGRPVCESLVIVQYLDEAFPEAAPALLPADPYARAQARFWADYVDKKLYDCGTRLWKLKGDGQAQARAEMVEILRTLEGALGDGPFFGGDALGFVDVALVPFTSWFLAYDRFGGVSVEKECPRLAAWAKRCAERPSVAKNLYPPEKVYDFVCGMKKRLGIE", "value-units": "nmol/min/mg", "activity of enzyme with Atrazine": 0.01}
